B1: NELF-E aptamer (parent)
chain: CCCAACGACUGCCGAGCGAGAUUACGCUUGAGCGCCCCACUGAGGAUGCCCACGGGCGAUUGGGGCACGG

variants of: B1; test: HiTS-RAP; details: with NELF-E (Drosophila)
Consider the reported Kd of an entry and match it to a band in bin A = under 6 nM, bin B = from 6 nM up to 9 nM, bin C = 9 nM and over

Illustrative cases are given below, each with its answer.
MACROMOLECULE_SEQUENCE | LABEL_VALUE
CCCAACGACUGCUGAGCGUGAUUACGCUUGAGCGCCCCACUGAGGAUGCCCACGGGCGAUUGGGGCACGG [C13U A19U] | bin A
CCCAACGACUUCCGAGCGAGAUUACGCUUGAGCGCCCCACUGAGGAUGCCCAUGGGCGAUUGGGGCACGG [G11U C53U] | bin A
CCCAACGACUGCCGAGCGAUAUUACGCUUGAGCGCCCCGCUGAGGAUGCCCACGGGCGAUUGGGGCACGG [G20U A39G] | bin C
CCCAACGACUGCCGAGCGAGAUUGCGCUUGAGCGCCCCACUGAGGAUGCCCACGGUCGAUUGGGGCACGG [A24G G56U] | bin B
CCCAACGUCUGCCGAGCGAGAUUACGCUUGAGCGCCCCAGUGAGGAUGCCCACGGGCGAUUGGGGCACGG [A8U C40G] | bin B
CCCAAGGACUGCCGAGCGAGAUUACGCUUGAGCGCCCCACUGAGGAUACCCACGGGCGAUUGGGGCACGG [C6G G48A] | bin C
CCCAAGGACUGCCGAGCGAGGUUACGCUUGAGCGCCCCACUGAGGAUGCCCACGGGCGAUUGGGGCACGG [C6G A21G] | bin A
CCCAAGGACUGCCGAGCGAGAUUACGCUUGAGCGCCCCACUGAAGAUGCCCACGGGCGAUUGGGGCACGG [C6G G44A] | bin C

Req: Sort into band: CCCAACUACUGCCGAGCGAGAUUACGCAUGAGCGCCCCACUGAGGAUGCCCACGGGCGAUUGGGGCACGG [G7U U28A]
Resp: bin A

Req: Sort into band: CCCAACGACUGCCGAGCGAGAGUACGCUUGAACGCCCCACUGAGGAUGCCCACGGGCGAUUGGGGCACGG [U22G G32A]
Resp: bin A

Req: Sort into band: CCCAAUGACUGCCGAGCGAGAUUACGCUUGAGCGCCCCACUGAGGAUGCCCACGAGCGAUUGGGGCACGG [C6U G55A]
Resp: bin B

Req: Sort into band: CCCUACGACCGCCGAGCGAGAUUACGCUUGAGCGCCCCACUGAGGAUGCCCACGGGCGAUUGGGGCACGG [A4U U10C]
Resp: bin B

Req: Sort into band: CCCAACGACAGCCGAGCGAGAUUGCGCUUGAGCGCCCCACUGAGGAUGCCCACGGGCGAUUGGGGCACGG [U10A A24G]
Resp: bin A

Req: Sort into band: CCCAACGACUGCCGAGCGAGAUUACGCUUGAGCGCCCCACGGAGGAUGCCCACGGGCGAUUGUGGCACGG [U41G G63U]
Resp: bin C

Req: Sort into band: CCCAACGACUGCCGAGGCAGAUUACGCUUGAGCGCCCCACUGAGGAUGCCCACGGGCGAUUGGGGCACGG [C17G G18C]
Resp: bin B

Req: Sort into band: CCCAACGACUGCCGAGCGAGAGUACGGUUGAGCGCCCCACUGAGGAUGCCCACGGGCGAUUGGGGCACGG [U22G C27G]
Resp: bin B

Req: Sort into band: CCCAACGACUGCCGAGCGAGAUUACGCUUGAGCGCCCCACUGAGGAUGCCCACGGGCGAUUGGGGCACAG [G69A]
Resp: bin A

Req: Sort into band: CCCAACGACUGCCGAGCGAGAUUACGCUUGAGCGCCCCAUUGAGGAUGCCCACGGGCGAUUGGGGCACGG [C40U]
Resp: bin C

Req: Sort into band: CCCAACGACUGCGGAGCGAGAUUAGGCUUGAGCGCCCCACUGAGGAUGCCCACGGGCGAUUGGGGCACGG [C13G C25G]
Resp: bin A

Req: Sort into band: CCCAACGUCUGUCGAGCGAGAUUACGCUUGAGCGCCCCACUGAGGAUGCCCACGGGCGAUUGGGGCACGG [A8U C12U]
Resp: bin A
